# Target Of Assay: Acetylcholinesterase (Electrophorus electricus)
# Sequence (O42275 whole entry): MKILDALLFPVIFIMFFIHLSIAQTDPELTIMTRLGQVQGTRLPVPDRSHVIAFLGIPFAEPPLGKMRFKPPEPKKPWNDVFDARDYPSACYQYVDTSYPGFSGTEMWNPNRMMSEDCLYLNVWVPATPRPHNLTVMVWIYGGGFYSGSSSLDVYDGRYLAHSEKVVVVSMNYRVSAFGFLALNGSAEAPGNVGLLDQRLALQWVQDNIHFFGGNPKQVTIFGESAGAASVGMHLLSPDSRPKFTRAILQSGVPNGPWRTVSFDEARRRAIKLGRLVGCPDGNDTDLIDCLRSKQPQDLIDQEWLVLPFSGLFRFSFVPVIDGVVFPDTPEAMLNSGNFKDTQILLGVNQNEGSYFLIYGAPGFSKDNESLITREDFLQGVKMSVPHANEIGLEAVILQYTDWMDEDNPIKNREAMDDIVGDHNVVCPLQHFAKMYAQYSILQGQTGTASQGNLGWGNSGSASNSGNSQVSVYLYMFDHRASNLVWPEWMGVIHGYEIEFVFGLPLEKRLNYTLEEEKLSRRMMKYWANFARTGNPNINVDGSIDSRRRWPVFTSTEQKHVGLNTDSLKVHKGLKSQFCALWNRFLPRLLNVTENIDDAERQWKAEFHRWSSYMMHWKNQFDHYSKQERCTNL
pIC50: −log10 of the molar value.
// label = Criterion met if pIC50 is not less than 6, otherwise Criterion not met

As a guide, the following entries are already answered.
{"Molecule": "COc1ccc2cc3[n+](cc2c1NCCCCOc1ccccc1)CCc1cc2c(cc1-3)OCO2", "Group Label": "Criterion met"}
{"Molecule": "COc1ccc2cc3[n+](cc2c1NCCCCOc1cccc2ccccc12)CCc1cc2c(cc1-3)OCO2", "Group Label": "Criterion met"}
{"Molecule": "COc1ccc2cc3[n+](cc2c1NC(C)c1ccccc1)CCc1cc2c(cc1-3)OCO2 (stereo not given)", "Group Label": "Criterion not met"}

Field: next molecule
Could you tell me if the measured pIC50 of "COc1ccc(CCNc2c(OC)ccc3cc4[n+](cc23)CCc2cc3c(cc2-4)OCO3)cc1OC" reaches 6 or more?
Criterion met
